Source listed as paper PMC9482650.

Measured on: T1, LIN7B, Q9HAP6
T1 sequence (Q9HAP6 88-185, limits assumed, looked up): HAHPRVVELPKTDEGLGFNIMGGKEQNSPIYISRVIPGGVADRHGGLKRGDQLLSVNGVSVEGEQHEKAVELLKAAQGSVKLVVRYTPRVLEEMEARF
Test: holdup assay
Design: key: below the threshold = too weak to quantify, mostly under pKd 3.1 to 4
Setup conditions: plain residues with an end cap or a label only (N-terminal biotin on a linker: ado-ado)
Metric name: pKd

Worked examples, 6 binders total:
Binder | pKd
VYEVPVETKF [SLC26A3, P40879] | 4.21
STYCDYTIEI [FAM71C, Q8NEG0] | below the threshold
KLQNPNQSVV [TYRP1, P17643] | below the threshold
NTALVESEDL [PALLS, Q8WX93;Q8WX93-1] | below the threshold
EFKQTSSFLV [JAM1, Q9Y624] | 3.88
LVEEEEPMNL [HDAC7, Q8WUI4] | below the threshold

Reported pKd for QLGSPTADLA [SIPA1, Q96FS4] : what is it? 3.9

Reported pKd for DSEEELPTRL [GRK6, P43250] : what is it? below the threshold
